# TEST_TARGET: HIV-1LAI envelope gp120 labeled with radioactive iodine (HIV-1 LAI), P03377
# ASSAY: 125I-gp120, peptide array
Sorting guide: entries reporting counts minus background (counts per 20 min) beneath 300 go in the 1.0 pile, the rest go in the 0.0 pile.

Check out these entries, answers already filled in.
{"columns": ["BINDER", "CLASSIFICATION"],
 "data": [
  ["MEGISIYTSDNYTEEMGS (modifications not checked) [CXCR4 1-18]", 0.0],
  ["NCKRLKSMTDIYLLNLAI (modifications not checked) [CCR5 57-74]", 1.0],
  ["LKSMTDIYLLNLAISDLF (modifications not checked) [CCR5 61-78]", 1.0],
  ["IFANVSEADDRYICDRFY (modifications not checked) [CXCR4 173-190]", 1.0],
  ["ERASSVYTRSTGEQEISV (modifications not checked) [CCR5 333-350]", 1.0]
]}

stdin: Determine if TVILILAFFACWLPYYIG (modifications not checked) [CXCR4 241-258] shows counts minus background (counts per 20 min) strictly lower than 300.
stdout: 0.0

stdin: Please do the same for VMVICYSGILKTLLRCRN (modifications not checked) [CCR5 209-226] as well.
stdout: 1.0
